- System Name: T1, PDZRN3_1, Q9UPQ7
- T1 sequence (Q9UPQ7 244-349, limits assumed, looked up): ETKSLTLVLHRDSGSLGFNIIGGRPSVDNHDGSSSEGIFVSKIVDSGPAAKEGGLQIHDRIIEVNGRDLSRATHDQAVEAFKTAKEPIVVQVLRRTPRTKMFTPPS
- Method Notes: holdup assay
- Parameters: key: below the threshold = too weak to quantify, mostly under pKd 3.1 to 4
- Test Context: plain residues with an end cap or a label only (N-terminal biotin on a linker: ahx)
Experimental Endpoint: pKd

EKQAKGDTEF [CACYBP, Q9HB71]; below the threshold
APSRKLNTEI [TIAM1, Q13009]; below the threshold
QPRTWLQSPV [RTKN, Q9BST9]; below the threshold
TEAKLTETNA [MYO18A, Q92614]; below the threshold
QNTDDVQTSF [ACE2, Q9BYF1]; below the threshold

Could you report pKd for every entry in the following list?
1. QDEKVKESYV [ABCA1, O95477]
2. TESNLQTSSC [CGN, Q9P2M7]
3. TQKFRASTAL [FRMPD1, Q5SYB0]
4. HTHSYIETHV [CNKSR2, Q8WXI2]

**Result**
[4.31, "below the threshold", 4.16, 3.8]
